Data provenance: patent US8551999B2

Measured quantity: melting point

>  <Substance smiles>
Br.Cn1c(C(=O)N2CCN(Cc3ccc4c(c3)OC(F)(F)O4)CC2)cc2ccc(Oc3ccc(NC(=O)c4ccc(Cl)c(Cl)c4)cn3)cc21

>  <Measured quantity>
melting point

>  <Value>
253 to 254.8 °C

$$$$

Prompt line: Endpoint output: melting point of Br.Br.CN(C(=O)c1ccc(C(F)(F)F)cc1)c1ccc(Oc2ccc3c(c2)cc(C(=O)N2CCN(Cc4ccc(C#N)cn4)CC2)n3C)nc1 . Value?
Response line: 211 to 215 °C

Prompt line: Endpoint output: melting point of Br.Cn1c(C(=O)N2CCN(Cc3ccc4c(c3)OCO4)CC2)cc2ccc(Oc3ccc(NC(=O)c4ccc(C(F)(F)F)cc4)cn3)cc21 . Value?
Response line: 264 to 265.6 °C

Prompt line: Endpoint output: melting point of COc1ccc(CN2CCN(C(=O)c3cc4cc(Oc5ccc(NC(=O)c6ccc(C(F)(F)F)cc6)cn5)ccc4n3C)[C@@H](C)C2)cc1.O=C(O)C(=O)O . Value?
Response line: 159 to 160 °C

Prompt line: Endpoint output: melting point of CC(C)Oc1ccc(CN2CCN(C(=O)c3cc4ccc(Oc5ncc(N(C)S(=O)(=O)c6ccc(C(F)(F)F)cc6)cn5)cc4n3C)CC2)cc1 . Value?
Response line: 186.6 to 187.3 °C

Prompt line: Endpoint output: melting point of COc1ccc(/C=C/CN2CCN(C(=O)c3cc4cc(Oc5ccc(NC(=O)c6ccc(C(F)(F)F)cc6)cn5)ccc4n3C)CC2)cc1.CS(=O)(=O)O . Value?
Response line: 246 to 249 °C (dec.)

====

Each entry below lists one item and its recorded melting point value.

>  <Compound>
Br.Cn1c(C(=O)N2CCN(Cc3ccc(F)cc3)CC2)cc2cc(Oc3ccc(NC(=O)c4ccc(C(F)(F)F)cc4)cn3)ccc21 [Example 551]

>  <melting point>
254 to 257 °C

$$$$

Prompt line: Endpoint output: melting point of CN(c1ccc(Oc2ccc3cc(C(=O)N4CCN(Cc5ccc(OCC(F)(F)F)cc5)CC4)[nH]c3c2)nc1)S(=O)(=O)c1ccc(C(F)(F)F)cc1 [Example 39] . Value?
Response line: 200.1 to 200.2 °C

Prompt line: Endpoint output: melting point of Br.CN(C(=O)c1ccc(C(F)(F)F)cc1)c1ccc(Oc2ccc3c(c2)cc(C(=O)N2CCN(Cc4ccc(F)cc4)CC2)n3C)nc1 [Example 549] . Value?
Response line: 218 to 220 °C

====

Each entry below lists one item and its recorded melting point value.

>  <Compound>
Cc1cc(CN2CCN(C(=O)c3cc4cc(Oc5ccc(N(C)C(=O)c6ccc(C(F)(F)F)cc6)cn5)ccc4n3C)CC2)no1.O=C(O)/C=C\C(=O)O [Example 568]

>  <melting point>
112 to 115 °C

$$$$
>  <Compound>
Br.Cn1c(C(=O)N2CCN(Cc3ccc(O)cc3)CC2)cc2ccc(Oc3ccc(NC(=O)c4ccc(C(F)(F)F)cc4)cn3)cc21 [Example 459]

>  <melting point>
241.4 to 242.7 °C

$$$$

Now turn to the next compound.
Prompt line: Endpoint output: melting point of Br.CC(C)Oc1ccc(CN2CCN(C(=O)c3cc4ccc(Oc5ccc(NC(=O)c6ccc(Cl)c(Cl)c6)cn5)cc4n3C)CC2)cc1F [Example 266] . Value?
Response line: 244.3 to 247 °C

====

Each entry below lists one item and its recorded melting point value.

// worked examples, melting point included
>  <Substance smiles>
CCCOc1ccc(CN2CCN(C(=O)c3cc4ccc(Oc5ccc(NC(=O)c6ccc(C(F)(F)F)cc6F)cn5)cc4n3C)CC2)cc1.Cl

>  <Value>
264 to 266.3 °C

$$$$
>  <Substance smiles>
CN(C(=O)c1ccc(C(F)(F)F)cc1F)c1ccc(Oc2ccc3cc(C(=O)N4CCN(Cc5ccc(OCC(F)(F)F)cc5)CC4)n(C)c3c2)nc1.Cl

>  <Value>
234.5 to 235.8 °C

$$$$
>  <Substance smiles>
Br.Cn1c(C(=O)N2CCN(Cc3ccc(OCC(F)(F)F)cc3)CC2)cc2ccc(Oc3ccc(NC(=O)c4ccc(C(F)(F)F)cc4)cn3)cc21

>  <Value>
269 to 270.3 °C

$$$$
>  <Substance smiles>
Br.CCN(C(=O)Nc1ccc(C(F)(F)F)cc1)c1ccc(Oc2ccc3c(c2)cc(C(=O)N2CCN(Cc4ccccc4)CC2)n3C)nc1

>  <Value>
224 to 230 °C

$$$$
>  <Substance smiles>
CC(C)Oc1ccc(CN2CCN(C(=O)c3cc4ccc(Oc5ccc(N(C)S(=O)(=O)c6ccc(Cl)c(Cl)c6)cn5)cc4n3C)CC2)cc1

>  <Value>
186.8 to 187 °C

$$$$

Prompt line: Endpoint output: melting point of CCCOc1ccc(CN2CCN(C(=O)c3cc4ccc(Oc5ccc(N(C)C(=O)c6ccc(C)cc6)cn5)cc4n3C)CC2)cc1.Cl . Value?
Response line: 231.2 to 231.8 °C

Prompt line: Endpoint output: melting point of CN(c1ccc(Oc2ccc3cc(C(=O)N4CCN(Cc5ccc(OCC(F)(F)F)cc5)CC4)[nH]c3c2)nc1)S(=O)(=O)c1ccc(Cl)c(Cl)c1.Cl . Value?
Response line: 225.2 to 229.3 °C

Prompt line: Endpoint output: melting point of CN(c1ccc(Oc2ccc3cc(C(=O)N4CCN(Cc5ccc(OCC(F)(F)F)cc5)CC4)[nH]c3c2)nc1)S(C)(=O)=O . Value?
Response line: 167 to 168.1 °C

Prompt line: Endpoint output: melting point of Cc1ccc(S(=O)(=O)N(C)c2ccc(Oc3ccc4cc(C(=O)N5CCN(Cc6ccc(OCC(F)F)cc6)CC5)n(C)c4c3)nc2)cc1 . Value?
Response line: 121.9 to 122.5 °C

Prompt line: Endpoint output: melting point of COc1ccc(CN2CCN(C(=O)c3cc4cc(Oc5ccc(N(C)C(=O)c6ccc(OC(F)(F)F)cc6)cn5)ccc4n3C)CC2)cc1.O=C(O)/C=C\C(=O)O . Value?
Response line: 147 to 148 °C

Prompt line: Endpoint output: melting point of Cl.Cn1c(C(=O)N2CCN(Cc3ccc(OC(F)F)cc3)CC2)cc2ccc(Oc3ccc(NC(=O)c4ccc(C(F)(F)F)cc4F)cn3)cc21 . Value?
Response line: 265.3 to 265.8 °C

Prompt line: Endpoint output: melting point of Br.Cn1c(C(=O)N2CCN(Cc3ccc(OC(F)(F)C(F)F)cc3)CC2)cc2ccc(Oc3ccc(NC(=O)c4ccc(C(F)(F)F)cc4)cn3)cc21 . Value?
Response line: 279 to 282 °C (dec.)

Prompt line: Endpoint output: melting point of Br.CC(C)Oc1ccc(CN2CCN(C(=O)c3cc4ccc(Oc5ccc(N(C)C(=O)c6ccc(C(F)(F)F)cc6)cn5)cc4n3C)CC2)cc1 . Value?
Response line: 251 to 253 °C

Prompt line: Endpoint output: melting point of Br.Cn1c(C(=O)N2CCN(Cc3ccc(OCC(F)(F)F)cc3)CC2)cc2cc(Oc3ccc(NC(=O)c4ccc(C(F)(F)F)cc4O)cn3)ccc21 . Value?
Response line: 214 to 219 °C (dec.)

Prompt line: Endpoint output: melting point of Br.CCOc1cccc(CN2CCN(C(=O)c3cc4cc(Oc5ccc(NC(=O)c6ccc(Cl)c(Cl)c6)cn5)ccc4n3C)CC2)c1 . Value?
Response line: 225 to 227 °C

====

Measured quantity: melting point

>  <Substance smiles>
Br.COCc1ccc(CN2CCN(C(=O)c3cc4cc(Oc5ccc(NC(=O)c6ccc(Cl)c(Cl)c6)cn5)ccc4n3C)CC2)cc1

>  <Value>
244 to 249 °C (dec.)

$$$$
>  <Substance smiles>
Br.CN(c1ccc(C(F)(F)F)cc1)c1ccc(Oc2ccc3c(c2)cc(C(=O)N2CCN(Cc4ccccc4)CC2)n3C)nc1

>  <Value>
212 to 218 °C

$$$$
>  <Substance smiles>
Br.Cn1c(C(=O)N2CCN(Cc3ccc(OCCF)cc3)CC2)cc2cc(Oc3ccc(NC(=O)c4ccc(Cl)c(Cl)c4)cn3)ccc21

>  <Value>
240 to 243 °C

$$$$
>  <Substance smiles>
Br.CC(C)Oc1ccc(CN2CCN(C(=O)c3cc4ccc(Oc5ccc(NC(=O)c6ccc(C(F)(F)F)cc6Cl)cn5)cc4n3C)CC2)cc1

>  <Value>
237.2 to 238.2 °C

$$$$
>  <Substance smiles>
Br.CN(C(=O)c1ccc(C(F)(F)F)cc1)c1ccc(Oc2ccc3cc(C(=O)N4CCN(Cc5ccc(OC(F)(F)C(F)F)cc5)CC4)n(C)c3c2)nc1

>  <Value>
245.4 to 247.6 °C

$$$$

Now turn to the next compound.
Prompt line: Endpoint output: melting point of Cn1c(C(=O)N2CCN(Cc3ccc(C#N)cc3)CC2)cc2cccc(Oc3ccc(NC(=O)c4ccc(C(F)(F)F)cc4)cn3)c21 . Value?
Response line: 228 to 229 °C
